Where these numbers come from: patent US20060177907A1

target: T1, HER3^I-II N44A (human, UniProt P21860 20-329); assay: SPR (BIAcore), immobilized trx-hrg
T1 construct: also called H3 I-II Mutant N44A
T1 sequence (P21860 20-329 N44A): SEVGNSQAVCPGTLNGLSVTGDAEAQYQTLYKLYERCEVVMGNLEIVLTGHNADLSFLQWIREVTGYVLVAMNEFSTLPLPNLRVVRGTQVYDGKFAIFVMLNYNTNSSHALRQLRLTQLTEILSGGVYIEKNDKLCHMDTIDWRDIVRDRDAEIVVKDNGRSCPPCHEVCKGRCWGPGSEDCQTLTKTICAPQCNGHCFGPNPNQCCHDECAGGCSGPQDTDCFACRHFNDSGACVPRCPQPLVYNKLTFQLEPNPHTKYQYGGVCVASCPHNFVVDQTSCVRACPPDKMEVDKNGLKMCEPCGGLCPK
pKd: −log10 of the molar value.

binder: trx-hrg, thioredoxin-heregulin fusion with a C-terminal His and S-tag (ligand, Made as in Landgraf et al. 1998; also called S-tagged hrg; immobilized hrg; not shown: thioredoxin; C-terminal His tag and S-tag) SHLVKCAEKEKTFCVNGGECFMVKDLSNPSRYLCKCPNEFTGDRCQNYVMASFYKHLGIEF
pKd: 7.02
